Species: Rattus norvegicus
run_description: DrugMatrix - Regimen: Daily Repeat
Assay type: toxicity, organism-based, Sprague-Dawley
Design: regimen Daily Repeat, gender Male, age 6-8 weeks
reported_conditions: in vivo, po, 0 mg/kg, 120 h, tissue Plasma, route oral GAVAGE, dose level Control, time 5 day, vehicle 100 % WATER
// reported ALANINE AMINOTRANSFERASE per item
Provide the reading as a plain figure in u/L.

Use these answered entries as a reference point.
>>> df
                               structure  result_value
0  Nc1ccc(S(=O)(=O)Nc2ccnn2-c2ccccc2)cc1            51
1                        NNC(=O)c1ccncc1          50.5
2            CNCCC=C1c2ccccc2CCc2ccccc21         50.67

Next:
Please give the measured ALANINE AMINOTRANSFERASE for this molecule: `O=C1NC(=O)C(c2ccccc2)(c2ccccc2)N1`
50.67

====

// reported CREATINE PHOSPHOKINASE per item
Species on record: Rattus norvegicus
run_description: DrugMatrix - Regimen: Daily Repeat
Assay type: toxicity, organism-based, Sprague-Dawley
Parameters: regimen Daily Repeat, gender Male, age 6-8 weeks
reported_conditions: in vivo, po, 0 mg/kg, 120 h, tissue Plasma, route oral GAVAGE, dose level Control, time 5 day, […]
Provide the reading as a plain figure in u/L.

Use these answered entries as a reference point.
>>> df
                     molecule      attribute_measured  result_value
0  c1ccc2[nH]c(-c3cscn3)nc2c1  CREATINE PHOSPHOKINASE        167.33
1                       C=CCN  CREATINE PHOSPHOKINASE        391.67

Please give the measured CREATINE PHOSPHOKINASE for this molecule: `Cn1cnc([N+](=O)[O-])c1Sc1ncnc2nc[nH]c12`
355.33

Please give the measured CREATINE PHOSPHOKINASE for this molecule: CC(C)n1c(/C=C/C(O)CC(O)CC(=O)O)c(-c2ccc(F)cc2)c2ccccc21 (centres undefined)
305.17

====

// reported EOSINOPHIL per item
Species: Rattus norvegicus
run_description: DrugMatrix - Regimen: Daily Repeat
Type: toxicity, organism-based, Sprague-Dawley
Parameters: regimen Daily Repeat, gender Male, age 6-8 weeks
reported_conditions: in vivo, po, 0 mg/kg, 120 h, tissue Blood, route oral GAVAGE, dose level Control, time 5 day, […]
Report as: number unit

>>> df
                             structure  result_value
0  O=[N+]([O-])c1cc([As](=O)(O)O)ccc1O         0.58%

Please give the measured EOSINOPHIL for this compound: `COc1ccc2c(c1)c(CC(=O)OCC(=O)O)c(C)n2C(=O)c1ccc(Cl)cc1`
1%

Please give the measured EOSINOPHIL for this compound: `c1ccc2[nH]c(-c3cscn3)nc2c1`
0.17%

====

// reported MEAN CORPUSCULAR HEMOGLOBIN per item
Species on record: Rattus norvegicus
run_description: DrugMatrix - Regimen: Daily Repeat
Format: toxicity, organism-based, Sprague-Dawley
Design: regimen Daily Repeat, gender Male, age 6-8 weeks
reported_conditions: in vivo, po, 0 mg/kg, 120 h, tissue Blood, route oral GAVAGE, dose level Control, time 5 day, vehicle .5 % CMC
Provide the reading as a plain figure in pg.

Use these answered entries as a reference point.
molecule	result_value
CN1CCC[C@@H]1CCO[C@](C)(c1ccccc1)c1ccc(Cl)cc1 [CLEMASTINE]	25.68
COC(=O)c1ccc(O)cc1 [METHYLPARABEN]	24.97
CC(C)[C@H](N)C(=O)OCCOCn1cnc2c(=O)[nH]c(N)nc21 [VALACYCLOVIR]	23.95

Please give the measured MEAN CORPUSCULAR HEMOGLOBIN for this molecule: CC[C@H]1OC(=O)[C@H](C)[C@@H](O[C@H]2C[C@@](C)(OC)[C@@H](O)[C@H](C)O2)[C@H](C)[C@@H](O[C@@H]2O[C@H](C)C[C@H](N(C)C)[C@H]2O)[C@](C)(O)C[C@@H](C)/C(=N\OCOCCOC)[C@H](C)[C@@H](O)[C@]1(C)O [ROXITHROMYCIN]
20.1

====

// reported BLOOD UREA NITROGEN per item
Species: Rattus norvegicus
run_description: DrugMatrix - Regimen: Daily Repeat
Assay type: toxicity, organism-based, Sprague-Dawley
Design: regimen Daily Repeat, gender Male, age 6-8 weeks
reported_conditions: in vivo, po, 0 mg/kg, 72 h, tissue Plasma, route oral GAVAGE, dose level Control, time 3 day, […]
Provide the reading as a plain figure in mg/dL.

Use these answered entries as a reference point.
                                   compound  quantity_unit  result_value
0                        C=CCN [ALLYLAMINE]          mg/dL         17.67
1  CC(=O)[C@H]1CC[C@H]2[C@@H]3CCC4=CC(=O)CC[C@]4(C)[C@H]3CC[C@]12C [PROGESTERONE]          mg/dL            12
2  CC(C)n1c(/C=C/C(O)CC(O)CC(=O)O)c(-c2ccc(F)cc2)c2ccccc21 (centres undefined) [FLUVASTATIN]          mg/dL         12.33

Next:
Please give the measured BLOOD UREA NITROGEN for this compound: CC1=C(/C=C/C(C)=C/C=C/C(C)=C\C(=O)O)C(C)(C)CCC1 [ISOTRETINOIN]
14.33

====

Organism: Rattus norvegicus
run_description: DrugMatrix - Regimen: Daily Repeat
Type: toxicity, organism-based, Sprague-Dawley
Design: regimen Daily Repeat, gender Male, age 6-8 weeks
reported_conditions: in vivo, po, 0 mg/kg, 120 h, tissue Plasma, route oral GAVAGE, dose level Control, time 5 day, vehicle 100 % WATER
attribute_measured: ALKALINE PHOSPHATASE (u/L)
Provide the reading as a plain figure in u/L.

Use these answered entries as a reference point.
In [3]: df
Out[3]:
                                   molecule  quantity_unit  result_value
0   Cn1cnc([N+](=O)[O-])c1Sc1ncnc2nc[nH]c12            u/L        308.67
1  Clc1ccc(C(c2ccccc2Cl)C(Cl)Cl)cc1 (centres undefined)            u/L         355.5
2           Cc1cc(NS(=O)(=O)c2ccc(N)cc2)no1            u/L        415.67

Next:
Please give the measured ALKALINE PHOSPHATASE for this molecule: `CC(C)(S)[C@@H](N)C(=O)O`
336.83

====

// reported PLATELET COUNT per item
Species: Rattus norvegicus
run_description: DrugMatrix - Regimen: Daily Repeat
Format: toxicity, organism-based, Sprague-Dawley
Set-up: regimen Daily Repeat, gender Male, age 6-8 weeks
reported_conditions: in vivo, po, 0 mg/kg, 72 h, tissue Blood, route oral GAVAGE, dose level Control, time 3 day, vehicle 100 % WATER
Provide the reading as a plain figure in x10E3/uL.

Use these answered entries as a reference point.
>>> print(df.to_string())
                                   molecule  attribute_measured  quantity_unit  result_value
0  COc1cccc(C2(O)CCCCC2CN(C)C)c1 (stereo not drawn)      PLATELET COUNT       x10E3/uL           858
1                           NNC(=O)c1ccncc1      PLATELET COUNT       x10E3/uL       1026.17
2  CC1(C)S[C@@H]2[C@H](NC(=O)[C@H](N)c3ccc(O)cc3)C(=O)N2[C@H]1C(=O)O      PLATELET COUNT       x10E3/uL       1125.33
3  Fc1ccc([C@@H]2CCNC[C@H]2COc2ccc3c(c2)OCO3)cc1      PLATELET COUNT       x10E3/uL           858
4  C[C@]12Cc3c[nH]nc3C[C@@H]1CC[C@@H]1[C@@H]2CC[C@@]2(C)[C@H]1CC[C@]2(C)O      PLATELET COUNT       x10E3/uL           858
5                      CN1CCC[C@H]1c1cccnc1      PLATELET COUNT       x10E3/uL       1016.67
6  NC(=O)c1ncn([C@@H]2O[C@H](CO)[C@@H](O)[C@H]2O)n1      PLATELET COUNT       x10E3/uL        1225.5
7               CNCCC=C1c2ccccc2CCc2ccccc21      PLATELET COUNT       x10E3/uL       1142.83

Please give the measured PLATELET COUNT for this molecule: Clc1ccc(C(c2ccccc2Cl)C(Cl)Cl)cc1 (stereo not drawn)
1246.17

Please give the measured PLATELET COUNT for this molecule: `NCC1(CC(=O)O)CCCCC1`
1188.5

Please give the measured PLATELET COUNT for this molecule: `O=C1NC(=O)C(c2ccccc2)(c2ccccc2)N1`
1142.83

Please give the measured PLATELET COUNT for this molecule: CC1COc2c(N3CCN(C)CC3)c(F)cc3c(=O)c(C(=O)O)cn1c23 (stereo not drawn)
1016.67

Please give the measured PLATELET COUNT for this molecule: `Nc1ccc(S(=O)(=O)Nc2ccnn2-c2ccccc2)cc1`
1193.5
